Listing of recorded MIC by entry.
Tested on: Enterobacter cloacae P 99
Type: cell-based
Settings: Mueller-Hinton agar, 10^7 CFU/ml, 37° C., 18 hours

{"MOLECULE": "COc1c(N2C[C@@H]3CCCN[C@@H]3C2)c(F)cc2c(=O)c(C(=O)C[N+](=O)[O-])cn(C3CC3)c12.Cl (racemic) [D]", "MIC": "13 ng/mL"}
{"MOLECULE": "COc1c(N2CC3CCCNC3C2)c(F)cc2c(=O)c(C(=O)C[N+](=O)[O-])cn(C3CC3)c12.Cl (racemic) [C]", "MIC": "4 ng/mL"}
{"MOLECULE": "O=C(O)c1cn(C2CC2)c2c(Cl)c(N3CC4CCCNC4C3)c(F)cc2c1=O (stereo not shown) [A]", "MIC": "4 ng/mL"}
{"MOLECULE": "Cl.O=C(C[N+](=O)[O-])c1cn(C2CC2)c2c(Cl)c(N3CC4CCCNC4C3)c(F)cc2c1=O (racemic) [B]", "MIC": "25 ng/mL"}

---

Tested on: Staphylococcus aureus 285
Experiment: In vitro antibacterial activity (MIC), agar two-fold dilution
Type: cell-based
Conditions: Staphylococcus aureus 285; Mueller-Hinton agar, 10^7 CFU/ml, 37° C., 18 hours

{"MOLECULE": "COc1c(N2C[C@@H]3CCCN[C@@H]3C2)c(F)cc2c(=O)c(C(=O)C[N+](=O)[O-])cn(C3CC3)c12.Cl (racemic) [D]", "MIC [µg/mL]": 0.391}
{"MOLECULE": "O=C(O)c1cn(C2CC2)c2c(Cl)c(N3CC4CCCNC4C3)c(F)cc2c1=O (stereo not shown) [A]", "MIC [µg/mL]": 0.025}
{"MOLECULE": "COc1c(N2CC3CCCNC3C2)c(F)cc2c(=O)c(C(=O)C[N+](=O)[O-])cn(C3CC3)c12.Cl (racemic) [C]", "MIC [µg/mL]": 0.025}
{"MOLECULE": "Cl.O=C(C[N+](=O)[O-])c1cn(C2CC2)c2c(Cl)c(N3CC4CCCNC4C3)c(F)cc2c1=O (racemic) [B]", "MIC [µg/mL]": 0.098}

---

Tested on: Enterobacter cloacae 1321E
Test: In vitro antibacterial activity (MIC), agar two-fold dilution
Format: cell-based
Conditions: Mueller-Hinton agar, 10^7 CFU/ml, 37° C., 18 hours
Listing of recorded MIC by entry.

{"COMPOUND": "O=C(O)c1cn(C2CC2)c2c(Cl)c(N3CC4CCCNC4C3)c(F)cc2c1=O (stereo not shown)", "REPORTED RELATION": "<", "MIC, ng/mL": 2}
{"COMPOUND": "COc1c(N2C[C@@H]3CCCN[C@@H]3C2)c(F)cc2c(=O)c(C(=O)C[N+](=O)[O-])cn(C3CC3)c12.Cl (racemic)", "REPORTED RELATION": "=", "MIC, ng/mL": 13}
{"COMPOUND": "Cl.O=C(C[N+](=O)[O-])c1cn(C2CC2)c2c(Cl)c(N3CC4CCCNC4C3)c(F)cc2c1=O (racemic)", "REPORTED RELATION": "=", "MIC, ng/mL": 13}
{"COMPOUND": "COc1c(N2CC3CCCNC3C2)c(F)cc2c(=O)c(C(=O)C[N+](=O)[O-])cn(C3CC3)c12.Cl (racemic)", "REPORTED RELATION": "<", "MIC, ng/mL": 2}
